Would you kindly list DBIL for each of these molecules?
# Species: Rattus norvegicus
# test.protocol: Open TG-GATES - Regimen: Daily Repeat
# Type: toxicity, organism-based, Sprague-Dawley
# Design: regimen Daily Repeat, gender Male, age 6 weeks
# condition.label: in vivo, po, 0 mg/kg, […], tissue Plasma, route gavage, dose level Control, time 7 day
Report as a plain number; the unit mg/dL is understood.

Req: Give reported DBIL value for `O=C(O)c1cn(C2CC2)c2cc(N3CCNCC3)c(F)cc2c1=O`
Resp: 0.01

Req: Tell me its DBIL given `Cn1c(=O)c2[nH]cnc2n(C)c1=O.O` as the entry.
Resp: 0

Req: Consider the molecule NC(=O)N1c2ccccc2C=Cc2ccccc21 [CARBAMAZEPINE] and give its recorded DBIL.
Resp: 0.1

Req: Kindly indicate its recorded DBIL. Item: `CO[C@H]1/C=C/O[C@@]2(C)Oc3c(C)c(O)c4c(O)c(c(/C=N/N5CCN(C)CC5)c(O)c4c3C2=O)NC(=O)/C(C)=C\C=C\[C@H](C)[C@H](O)[C@@H](C)[C@@H](O)[C@@H](C)[C@H](OC(C)=O)[C@@H]1C`
Resp: 0.004

---

Would you mind telling me the reported TBIL of each entry?
# Organism: Rattus norvegicus
# test.protocol: Open TG-GATES - Regimen: Daily Repeat
# Format: toxicity, organism-based, Sprague-Dawley
# Design: regimen Daily Repeat, gender Male, age 6 weeks
# condition.label: in vivo, po, 0 mg/kg, 72 h, tissue Plasma, route gavage, dose level Control, time 3 day

Req: Tell me TBIL reported for CSc1ccc2c(c1)N(CCC1CCCCN1C)c1ccccc1S2 (stereo not given)
Resp: 0.4 mg/dL

Req: Hello, please tell me recorded TBIL for this one: `COc1ccc(Cc2nccc3cc(OC)c(OC)cc23)cc1OC`
Resp: 0.004 mg/dL

Req: Provide measured TBIL value, entry: `O=C(O)c1cc(/N=N/c2ccc(S(=O)(=O)Nc3ccccn3)cc2)ccc1O`
Resp: 0.2 mg/dL

Req: For the compound `CN(C)CCC=C1c2ccccc2CCc2ccccc21` , give its measured TBIL value.
Resp: 0.054 mg/dL

Req: Please supply the value of reported TBIL for the item `Cn1c(=O)c2[nH]cnc2n(C)c1=O.O`
Resp: 0 mg/dL

---

So I've got a bunch of compounds here, and I need their gamma-GTP values.
# Species on record: Rattus norvegicus
# test.protocol: Open TG-GATES - Regimen: Single
# Assay type: toxicity, organism-based, Sprague-Dawley
# Design: regimen Single, gender Male, age 6 weeks
# condition.label: in vivo, po, 300 mg/kg, 3 h, tissue Plasma, route gavage, dose level Middle
# answer = value followed by unit

Req: Look up and report measured gamma-GTP for this entry: `O=C(O)c1cn(C2CC2)c2cc(N3CCNCC3)c(F)cc2c1=O`
Resp: 1 IU/L

Req: Please report gamma-GTP for the following compound: CCc1cc(C(N)=S)ccn1 [ETHIONAMIDE]
Resp: 1.4 IU/L

Req: Return reported gamma-GTP. Input compound: `O=C(O)c1cc(/N=N/c2ccc(S(=O)(=O)Nc3ccccn3)cc2)ccc1O`
Resp: 1 IU/L

Req: Indicate its recorded gamma-GTP; the compound in question is `C[C@H](CS)C(=O)N1CCC[C@H]1C(=O)O`
Resp: 1.4 IU/L

Req: Give the reported value of gamma-GTP for this record: `Clc1ccccc1CN1CCc2sccc2C1`
Resp: 0.8 IU/L
